# tested.on: T1, mouse glucagon receptor (mouse, UniProt Q61606 28-485)
# T1 construct: Cloned receptor expressed in 293HEK cells; also called murine GluR; mouse GlucR
# T1 chain: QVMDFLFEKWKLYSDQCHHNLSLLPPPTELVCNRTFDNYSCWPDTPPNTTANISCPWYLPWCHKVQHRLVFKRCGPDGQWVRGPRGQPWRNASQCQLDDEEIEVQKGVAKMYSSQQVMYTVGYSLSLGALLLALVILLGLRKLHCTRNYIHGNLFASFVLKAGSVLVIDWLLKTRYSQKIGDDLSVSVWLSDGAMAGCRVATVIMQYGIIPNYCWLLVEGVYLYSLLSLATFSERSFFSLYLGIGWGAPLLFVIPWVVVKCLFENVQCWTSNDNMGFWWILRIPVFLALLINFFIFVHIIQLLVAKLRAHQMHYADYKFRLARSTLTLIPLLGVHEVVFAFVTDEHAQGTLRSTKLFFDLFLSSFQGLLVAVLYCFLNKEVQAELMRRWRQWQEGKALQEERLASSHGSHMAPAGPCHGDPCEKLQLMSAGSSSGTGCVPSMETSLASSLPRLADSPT
# assay.method.text: competition with [125I]glucagon, SPA, membranes of 293HEK cells expressing the receptor
pKi: −log10 of the molar value.
Consider the following binders and their measured pKi readings.

| binder | pKi |
| --- | --- |
| Fab fragment of antibody example 7 (Fab, V domains shown, Expressed in E. coli; Fab = VL+CL and VH+CH1 (Fc absent); also called Fab of Ab7; not shown: His tag) VH: QVQLQESGPGLVKPSETLSLTCTVSGDDITSGYHEWIRQPPGKGLEWIGYISYSGSTSYSPSLKSRVTISVDTSKNQFSLKLSSVTAADTAVYYCARPPAYYGFGPYALDYWGQGTLVTVSS VL: DIQMTQSPSSLSASVGDRVTITCSASSSVSYIHWYQQKPGKAPKLLIYTTSYLAHGVPSRFSGSGSGTDFTLTISSLQPEDFATYYCQQRSTLPPTFGGGTKVEIKR | > 7.30 |
| Antibody of example 2 (Ab2) (antibody, human IgG4 S228P, kappa, F234A L235A, V domains shown, Humanized full antibody with kappa light chain and modified human IgG4 Fc) VH: QVQLQESGPGLVKPSETLSLTCTVSGDDITSGYWNWIRQPPGKGLEWIGYISYSGSTYYIPSLKSRVTISVDTSKNQFSLKLSSVTAADTAVYYCARPPGYYGFGPYAMDYWGQGTLVTVSS VL: DIQMTQSPSSLSASVGDRVTITCSYSSSVSYMHWYQQKPGKAPKLLIYTTSNLAHGVPSRFSGSGSGTDFTLTISSLQPEDFATYYCQQRSTLPPTFGGGTKVEIKR | > 7.30 |
